Assay: Total plasma concentration in NOD-SCID mouse at 7.5 mg/kg, ip measured after 90 mins by HPLC/MS/MS analysis
Format: ADME, organism-based
observed property: concentration at 1.5 h (nM)
# unit: nM | format: bare number

Consider the worked cases shown below.
C[C@]12CC[C@H]3[C@@H](CC=C4C[C@@H](OC(=O)CN)CC[C@@]43C)[C@@H]1CC[C@@H]2[C@H](O)CC(O)(C(F)(F)F)C(F)(F)F = 7.5
C[C@]12CCC(=O)C[C@@H]1CC[C@@H]1[C@@H]2CC[C@]2(C)[C@@H]([C@H](O)CC(O)(C(F)(F)F)C(F)(F)F)CC[C@@H]12 = 525
C[C@]12CC[C@H]3[C@@H](CC=C4C[C@@H](O)CC[C@@]43C)[C@@H]1CC[C@@H]2[C@@H](O)CC(O)(C(F)(F)F)C(F)(F)F = 360

Quick one: give measured concentration at 1.5 h for `C[C@]12CC[C@H]3[C@@H](CC=C4C[C@@H](O)CC[C@@]43C)[C@@H]1CC[C@@H]2[C@H](O)CC(O)(C(F)(F)F)C(F)(F)F`
93.1

====

Overview of reported pKd across a group of molecules:
Biological target: Fibroblast growth factor 2 (Homo sapiens)
Sequence (P09038 143-288 limits assumed): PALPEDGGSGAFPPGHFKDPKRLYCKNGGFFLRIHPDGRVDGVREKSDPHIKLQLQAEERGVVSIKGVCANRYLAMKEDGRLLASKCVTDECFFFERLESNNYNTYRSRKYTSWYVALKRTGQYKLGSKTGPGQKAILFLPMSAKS
Note on pKd: it is the negative log10 of concentration, concentration in mol/L.

C[C@]12CCC(=O)C[C@@H]1CC[C@@H]1[C@@H]2CC[C@]2(C)[C@@H]([C@H](O)CC(O)(C(F)(F)F)C(F)(F)F)CC[C@@H]12 = 4.52

Next:
Given `C[C@]12CC[C@H]3[C@@H](CC=C4C[C@@H](OC(=O)CN)CC[C@@]43C)[C@@H]1CC[C@@H]2[C@H](O)CC(O)(C(F)(F)F)C(F)(F)F` , report its pKd on Fibroblast growth factor 2 (Homo sapiens).
4.52

====

Tested on: OPM-2
Experiment: Antiproliferative activity against human OPM-2 cells assessed as reduction in cell viability incubated for 48 hrs by propidium iodide staining-based flow cytometric analysis
Type: functional
Conditions: OPM-2, 48 h
observed property: IC50 (µM)
# unit: µM | format: bare number

C[C@]12CC[C@H]3[C@@H](CC=C4C[C@@H](OC(=O)CN)CC[C@@]43C)[C@@H]1CC[C@@H]2[C@H](O)CC(O)(C(F)(F)F)C(F)(F)F = 7.3

Next:
Quick one: give measured IC50 for `C[C@]12CCC(=O)C[C@@H]1CC[C@@H]1[C@@H]2CC[C@]2(C)[C@@H]([C@H](O)CC(O)(C(F)(F)F)C(F)(F)F)CC[C@@H]12`
6.6

src = ChEMBL document CHEMBL4837219
